Below, each entry is listed with its recorded selectivity ratio.
assay: Traction reflex test (myorelaxant action); format: in vivo; details: mouse, traction reflex versus mes, ip; mice, i.p.; Table 8; read-out: TI Tract. (ED50 traction reflex impairment / ED50 MES)
Reply with just the number.

molecule | selectivity ratio
CCC1(CC)CC(C)(C)CC(C)(N)C1 (stereo not shown) | 1.4
CCCC1(N)CC(C)(C)CC(C)(C)C1 | 1.5
CCC[C@@H]1CC(C)(C)C[C@@](C)(N)C1 (relative stereo) | 1.3
CC[C@@]1(C)C[C@H](C)C[C@@](C)(N)C1 (relative stereo) | 1.1

Data request: I'd like to know its selectivity ratio. The molecule in question is C[C@@H]1CCC[C@@](C)(N)C1 (relative stereo)
Data returned: 0.5

Data request: Reported selectivity ratio for CNC1(C)CC(C)(C)CC(C)(C)C1.Cl [Mrz 2/640, hydrochloride] : what is it?
Data returned: 2.3

Data request: Record request: selectivity ratio value, item CC[C@H]1CC(C)(C)C[C@@](C)(N)C1 (relative stereo)
Data returned: 2.7

Data request: Using the record for CC1(C)CC(C)(C)CC(C)(CCN)C1 , report its selectivity ratio.
Data returned: 1

Data request: Query: selectivity ratio; subject: CC[C@@H]1CC(C)(C)C[C@@](C)(N)C1 (relative stereo)
Data returned: 2.4

Data request: Find the recorded selectivity ratio belonging to CCC[C@@H]1CCC[C@@](C)(N)C1 (relative stereo) and report it.
Data returned: 0.8

Data request: Can you look up the measured selectivity ratio of CC1(C)CC(CCN)CC(C)(C)C1 for me?
Data returned: 0.5

Data request: Which measured selectivity ratio value corresponds to CCC[C@]1(C)C[C@@H](C)C[C@@](C)(N)C1 (relative stereo) ?
Data returned: 1

Data request: Which selectivity ratio is listed for C[C@@H]1CC(C)(C)C[C@@](C)(N)C1 (relative stereo) ?
Data returned: 1.3

Data request: Which value of selectivity ratio has been reported for CC1(C)CC(N)CC(C)(C)C1 in the records?
Data returned: 1

Data request: Entry under review: CN(C)C1(C)CC(C)(C)CC(C)(C)C1 . Reported selectivity ratio?
Data returned: 4.1

Data request: Param item = CC1(C)CC(C)(C)CC(C)(N)C1 ; retrieve measured selectivity ratio.
Data returned: 2.9

Data request: Give the measured selectivity ratio of CCC[C@@]1(C)C[C@H](C)C[C@@](C)(N)C1 (relative stereo) .
Data returned: 1.2

Data request: Returns the measured selectivity ratio for the input molecule. Input: CC[C@]1(C)C[C@@H](C)C[C@@](C)(N)C1 (relative stereo)
Data returned: 0.9

Data request: Given the molecule CC1CC(C)CC(C)(N)C1 (stereo not shown) , what is its reported selectivity ratio?
Data returned: 1

----------
test: Rotarod test (motor coordination, ataxia); assay type: in vivo; conditions: mouse, rotarod versus mes, ip; mice, i.p.; Table 8; read-out: TI Rot. (ED50 rotarod failure / ED50 MES)
Listed here are compounds together with their documented selectivity ratio.
No unit in the answer, only the number.

// worked examples, selectivity ratio included
compound | selectivity ratio
C[C@@H]1CCC[C@@](C)(N)C1 (relative stereo) | 1.2
CC[C@]1(C)C[C@@H](C)C[C@@](C)(N)C1 (relative stereo) | 1
CCC[C@@]1(C)C[C@H](C)C[C@@](C)(N)C1 (relative stereo) | 1.1
CC1(C)CC(C)(C)CC(C)(N)C1 | 5
C[C@@H]1CC(C)(C)C[C@@](C)(N)C1 (relative stereo) | 1.7

Data request: Which value of selectivity ratio has been reported for CCC[C@H]1CCC[C@@](C)(N)C1 (relative stereo) in the records?
Data returned: 1.6

Data request: Record request: selectivity ratio value, item C[C@@H]1C[C@H](C)C[C@](C)(N)C1
Data returned: 5.3

Data request: Can you share its selectivity ratio? I mean this compound: CC[C@@H]1CCC[C@@](C)(N)C1 (relative stereo)
Data returned: 0.9

Data request: Would you mind telling me what selectivity ratio value was observed for CC1(C)CC(CCN)CC(C)(C)C1 ?
Data returned: 0.6

Data request: I'd like to know its selectivity ratio. The compound in question is CC1(C)CC(CN)CC(C)(C)C1.Cl [Mrz 2/580, hydrochloride]
Data returned: 1.3

----------
test: Traction reflex test (myorelaxant action); type: in vivo; details: mouse, traction reflex versus mes, ip; mice, i.p.; Table 8; read-out: TI Tract. (ED50 traction reflex impairment / ED50 MES)
Label y for high-side selectivity ratio (at or above 0.9) and n for low-side selectivity ratio (below it).

compound | label.class
CC1(C)CC(CN)CC(C)(C)C1.Cl [Mrz 2/580, hydrochloride] | y

Data request: Quick check, selectivity ratio >= 0.9? CCNC1(C)CC(C)(C)CC(C)(C)C1
Data returned: y

Data request: Check this compound for selectivity ratio at or above 0.9: CCC1(C)CC(C)(C)CC(C)(N)C1 (stereo not drawn)
Data returned: y

Data request: Given the entry CCC[C@H]1CCC[C@@](C)(N)C1 (relative stereo) , answer whether its selectivity ratio meets or surpasses 0.9.
Data returned: n

Data request: Is it the case that CCC1(N)CC(C)(C)CC(C)(C)C1 has selectivity ratio reaching or exceeding 0.9?
Data returned: n

----------
molecular target: NMDA receptor; assay: [3H]-(+)-MK-801 receptor binding to rat cortical membranes; settings: read-out: [3H]MK-801 IC50, [3H]-(+)-MK-801 5 nM, Table 7
This section presents compounds with their documented pIC50 values.
Value format note: pIC50 is -log10 of concentration (mol/L); just state the number.

Observe how each entry below is paired with its result.
compound | value.observed
CC1CC(C)CC(C)(N)C1 (stereo not shown) [Mrz 2/616, 1-amino-1,3,5-trimethylcyclohexane] | 3.82
CC[C@H]1CCC[C@@](C)(N)C1 (relative stereo) [Mrz 2/630] | 3.35
CC[C@@]1(C)C[C@H](C)C[C@@](C)(N)C1 (relative stereo) [Mrz 2/622] | 3.82

Kindly review the next compound as well.
Data request: Consider the compound shown here: CCC1(N)CC(C)(C)CC(C)(C)C1 [Mrz 2/600] What is its recorded pIC50?
Data returned: 4.62

----------
test system: traction reflex in mice; test: Traction reflex test (myorelaxant action); type: in vivo; details: i.p., Table 8
recorded.metric: TI Tract. (ED50 traction reflex impairment / ED50 MES)
When you answer, write just the number.

molecule | value.observed
CCCC1(C)CC(C)(C)CC(C)(N)C1 (stereo not drawn) | 1.9
C[C@@H]1C[C@H](C)C[C@@](C)(N)C1 | 0.7
CCCC1(C)CCCC(C)(N)C1 (stereo not drawn) | 1.1
CCCC1(CCC)CC(C)(C)CC(C)(N)C1 (stereo not drawn) | 1.1

Data request: Give its TI Tract. (ED50 traction reflex impairment / ED50 MES) value. Item: C[C@@H]1C[C@H](C)C[C@](C)(N)C1
Data returned: 2.1

Data request: Any idea what its TI Tract. (ED50 traction reflex impairment / ED50 MES) is? The molecule is CCC1(C)CCCC(C)(N)C1 (stereo not drawn)
Data returned: 1.6

----------
experiment: Rotarod test (motor coordination, ataxia); format: in vivo; conditions: mouse, in vivo, ip; mice, i.p.; Table 8; read-out: TI Rot. (ED50 rotarod failure / ED50 MES)
recorded.metric: selectivity ratio

compound | value.observed
CN(C)C1(C)CC(C)(C)CC(C)(C)C1 [Mrz 2/642] | 5.3

Data request: Which selectivity ratio is listed for CCCC1(N)CC(C)(C)CC(C)(C)C1 [Mrz 2/601] ?
Data returned: 1.5

----------
system: traction reflex in mice; test: Traction reflex test (myorelaxant action); type: in vivo; settings: i.p., Table 8
recorded.metric: TI Tract. (ED50 traction reflex impairment / ED50 MES)
Respond numerically, and do not add a unit to the figure.

compound | value.observed
C[C@H]1CC(C)(C)C[C@@](C)(N)C1 (relative stereo) | 1.3
CC[C@H]1CC(C)(C)C[C@](C)(N)C1 | 2.7
CC(C)(N)CC1CC(C)(C)CC(C)(C)C1 | 0.6
CC12CC3CC(C)(C1)CC(N)(C3)C2 [Memantine, reference compound] | 2.9
CC1(C)CCCC(C)(N)C1 (stereo not shown) | 1.8
CC[C@H]1CC(C)(C)C[C@@](C)(N)C1 | 2.7

Now take the following compound into account.
Data request: For the compound shown here, CC1(C)CC(C)(C)CC(C)(N2CCCC2)C1.Cl , give the reported TI Tract. (ED50 traction reflex impairment / ED50 MES).
Data returned: 3.9

----------
details: i.p.; Table 8
Collected Min Lethality values appear next to each entry.
Enter your answer as a number in mg/kg; do not include the unit.

compound | unit.abbreviation | Min Lethality
CC1(C)CC(CN)CC(C)(C)C1.Cl | mg/kg | 50
CC1(C)CC(C)(C)CC(C)(N)C1 | mg/kg | 108
CCC1(C)CC(C)(C)CC(C)(N)C1 (stereo not drawn) | mg/kg | 50
CNC1(C)CC(C)(C)CC(C)(C)C1.Cl | mg/kg | 108
CCNC1(C)CC(C)(C)CC(C)(C)C1 | mg/kg | 30
CCCC1(N)CC(C)(C)CC(C)(C)C1 | mg/kg | 50

Data request: Query (compound): CCC1(N)CC(C)(C)CC(C)(C)C1 ; field requested: Min Lethality
Data returned: 50
